- PROTOCOL SUMMARY: Pharmacokinetics after single oral administration to fed male beagle dogs (plasma concentrations by LC-MS, non-compartmental analysis)
- Type: in vivo
- RUN PARAMETERS: male, beagle, dog, plasma, po, 2 mg/kg, mean, n=4; single oral 2 mg/kg, fed male beagle dogs, cross-over; granulate with 20% SDS in gelatine capsules; read-out: Cmax
MEASURED METRIC: Cmax (ng/mL)
One number for each entry, in ng/mL.

Identify measured Cmax associated with Cc1cc(F)ccc1-c1cc(N2CCS(=O)(=O)CC2)ncc1N(C)C(=O)C(C)(C)c1cc(C(F)(F)F)cc(C(F)(F)F)c1 [Form A] 514

====

- PROTOCOL SUMMARY: Pharmacokinetics after single oral administration to fed male beagle dogs (plasma concentrations by LC-MS, non-compartmental analysis)
- Assay type: in vivo
- RUN PARAMETERS: beagle, dog, plasma, po, 5 mg/kg, mean, n=2; 5 mg/kg oral microsuspension, values normalized to 2 mg/kg; read-out: AUC(0–24 h)
MEASURED METRIC: AUC(0-t) (ng·h/mL)
One number for each entry, in ng·h/mL.

Identify measured AUC(0-t) associated with Cc1cc(F)ccc1-c1cc(N2CCS(=O)(=O)CC2)ncc1N(C)C(=O)C(C)(C)c1cc(C(F)(F)F)cc(C(F)(F)F)c1 4160

====

- PROTOCOL SUMMARY: Pharmacokinetics after single oral administration to fed male beagle dogs (plasma concentrations by LC-MS, non-compartmental analysis)
- Assay type: in vivo
- RUN PARAMETERS: beagle, dog, plasma, po, 5 mg/kg, mean, n=2; single oral 5 mg/kg by gavage as microsuspension, fed dogs; read-out: AUC(0–24 h)
MEASURED METRIC: AUC(0-t)

Identify measured AUC(0-t) associated with Cc1cc(F)ccc1-c1cc(N2CCS(=O)(=O)CC2)ncc1N(C)C(=O)C(C)(C)c1cc(C(F)(F)F)cc(C(F)(F)F)c1 [amorphous material] 10400 ng·h/mL

====

- PROTOCOL SUMMARY: Pharmacokinetics after single oral administration to fed male beagle dogs (plasma concentrations by LC-MS, non-compartmental analysis)
- Format: in vivo
- RUN PARAMETERS: male, beagle, dog, plasma, po, 2 mg/kg, dog Mickey; single oral 2 mg/kg, fed male beagle dog, cross-over; granulate with 20% SDS in gelatine capsules; read-out: Cmax
MEASURED METRIC: Cmax (ng/mL)
Answers are plain numbers, in ng/mL.

Identify measured Cmax associated with Cc1cc(F)ccc1-c1cc(N2CCS(=O)(=O)CC2)ncc1N(C)C(=O)C(C)(C)c1cc(C(F)(F)F)cc(C(F)(F)F)c1 [Form A] 496

====

- PROTOCOL SUMMARY: Pharmacokinetics after single oral administration to fed male beagle dogs (plasma concentrations by LC-MS, non-compartmental analysis)
- Format: in vivo
- RUN PARAMETERS: beagle, dog, plasma, oral, 5 mg/kg, mean, n=2; 5 mg/kg oral microsuspension, values normalized to 2 mg/kg; read-out: C(24 h)
MEASURED METRIC: concentration at 24 h (ng/mL)
Numbers only, in ng/mL.

Identify measured concentration at 24 h associated with Cc1cc(F)ccc1-c1cc(N2CCS(=O)(=O)CC2)ncc1N(C)C(=O)C(C)(C)c1cc(C(F)(F)F)cc(C(F)(F)F)c1 49.2

====

- PROTOCOL SUMMARY: Pharmacokinetics after single oral administration to fed male beagle dogs (plasma concentrations by LC-MS, non-compartmental analysis)
- Type: in vivo
- RUN PARAMETERS: beagle, dog, plasma, po, 5 mg/kg, mean, n=2; 5 mg/kg oral microsuspension, values normalized to 2 mg/kg; read-out: Cmax
MEASURED METRIC: Cmax (ng/mL)
Numbers only, in ng/mL.

Identify measured Cmax associated with Cc1cc(F)ccc1-c1cc(N2CCS(=O)(=O)CC2)ncc1N(C)C(=O)C(C)(C)c1cc(C(F)(F)F)cc(C(F)(F)F)c1 1220

====

- PROTOCOL SUMMARY: Pharmacokinetics after single oral administration to fed male beagle dogs (plasma concentrations by LC-MS, non-compartmental analysis)
- Assay type: in vivo
- RUN PARAMETERS: beagle, dog, plasma, po, 5 mg/kg, mean, n=2; single oral 5 mg/kg by gavage as microsuspension, fed dogs; read-out: Cmax
MEASURED METRIC: Cmax (ng/mL)
One number for each entry, in ng/mL.

Identify measured Cmax associated with Cc1cc(F)ccc1-c1cc(N2CCS(=O)(=O)CC2)ncc1N(C)C(=O)C(C)(C)c1cc(C(F)(F)F)cc(C(F)(F)F)c1 [amorphous material] 3050

====

- PROTOCOL SUMMARY: Pharmacokinetics after single oral administration to fed male beagle dogs (plasma concentrations by LC-MS, non-compartmental analysis)
- Format: in vivo
- RUN PARAMETERS: male, beagle, dog, plasma, po, 2 mg/kg, dog Lupo; single oral 2 mg/kg, fed male beagle dog, cross-over; granulate with 20% SDS in gelatine capsules; read-out: C(24 h)
MEASURED METRIC: concentration at 24 h (ng/mL)
One number for each entry, in ng/mL.

Identify measured concentration at 24 h associated with Cc1cc(F)ccc1-c1cc(N2CCS(=O)(=O)CC2)ncc1N(C)C(=O)C(C)(C)c1cc(C(F)(F)F)cc(C(F)(F)F)c1 [Form A] 40.3

====

- PROTOCOL SUMMARY: Pharmacokinetics after single oral administration to fed male beagle dogs (plasma concentrations by LC-MS, non-compartmental analysis)
- Assay type: in vivo
- RUN PARAMETERS: male, beagle, dog, plasma, po, 2 mg/kg, dog Mickey; single oral 2 mg/kg, fed male beagle dog, cross-over; granulate with 20% SDS in gelatine capsules; read-out: C(24 h)
MEASURED METRIC: concentration at 24 h
I'd appreciate it if you wrote the number followed by its unit.

Identify measured concentration at 24 h associated with Cc1cc(F)ccc1-c1cc(N2CCS(=O)(=O)CC2)ncc1N(C)C(=O)C(C)(C)c1cc(C(F)(F)F)cc(C(F)(F)F)c1 [Form A] 29.8 ng/mL

====

- PROTOCOL SUMMARY: Pharmacokinetics after single oral administration to fed male beagle dogs (plasma concentrations by LC-MS, non-compartmental analysis)
- Type: in vivo
- RUN PARAMETERS: beagle, dog, plasma, po, 5 mg/kg, mean, n=2; single oral 5 mg/kg by gavage as microsuspension, fed dogs; read-out: C(24 h)
MEASURED METRIC: concentration at 24 h (ng/mL)
Numbers only, in ng/mL.

Identify measured concentration at 24 h associated with Cc1cc(F)ccc1-c1cc(N2CCS(=O)(=O)CC2)ncc1N(C)C(=O)C(C)(C)c1cc(C(F)(F)F)cc(C(F)(F)F)c1 [amorphous material] 123

====

- PROTOCOL SUMMARY: Pharmacokinetics after single oral administration to fed male beagle dogs (plasma concentrations by LC-MS, non-compartmental analysis)
- Format: in vivo
- RUN PARAMETERS: male, beagle, dog, plasma, po, 2 mg/kg, mean, n=4; single oral 2 mg/kg, fed male beagle dogs, cross-over; granulate with 20% SDS in gelatine capsules; read-out: C(24 h)
- Experimental: Four male beagle dogs (age 5 to 6 years, body weight 11 to 14 kg) received single oral doses of 2 mg/kg of 2-(3,5-bis-trifluoromethyl-phenyl)-N-[6-(1,1-dioxo-1λ^6-thiomorpholin-4-yl)-4-(4-fluoro-2-methyl-phenyl)-pyridin-3-yl]-N-methyl-isobutyramide form A and form B (cross-over study design). The formulation was a granulate of the finely milled compound with 20% sodium dodecyl sulfate (SDS) in gelatine capsules. […]
MEASURED METRIC: concentration at 24 h (ng/mL)
One number for each entry, in ng/mL.

Identify measured concentration at 24 h associated with Cc1cc(F)ccc1-c1cc(N2CCS(=O)(=O)CC2)ncc1N(C)C(=O)C(C)(C)c1cc(C(F)(F)F)cc(C(F)(F)F)c1 [Form A] 36.5

====

- PROTOCOL SUMMARY: Pharmacokinetics after single oral administration to fed male beagle dogs (plasma concentrations by LC-MS, non-compartmental analysis)
- Assay type: in vivo
- RUN PARAMETERS: male, beagle, dog, plasma, po, 2 mg/kg, mean, n=4; single oral 2 mg/kg, fed male beagle dogs; finely milled compound with 10% SDS in gelatine capsules; read-out: C(24 h)
- Experimental: Four male beagle dogs (age 5 to 6 years, body weight 11 to 14 kg) received single oral doses of 2 mg/kg of 2-(3,5-bis-trifluoromethyl-phenyl)-N-[6-(1,1-dioxo-1λ^6-thiomorpholin-4-yl)-4-(4-fluoro-2-methyl-phenyl)-pyridin-3-yl]-N-methyl-isobutyramide form A and form B (cross-over study design). The formulation was a granulate of the finely milled compound with 20% sodium dodecyl sulfate (SDS) in gelatine capsules. […]
MEASURED METRIC: concentration at 24 h (ng/mL)
One number for each entry, in ng/mL.

Identify measured concentration at 24 h associated with Cc1cc(F)ccc1-c1cc(N2CCS(=O)(=O)CC2)ncc1N(C)C(=O)C(C)(C)c1cc(C(F)(F)F)cc(C(F)(F)F)c1 [Form C] 29.2
